Data provenance: patent US20260232642A1

# System: Jurkat cells
# PROCEDURE SUMMARY: MTT assay, Jurkat
# Format: cell-based, human
# MEASUREMENT SETUP: Homo sapiens, Jurkat, 72 h, acute leukemia cell line, read-out: Cell lines IC50 [μM] Jurkat
Some molecules, each annotated with its measured IC50.
ASSAY READOUT: IC50 (µM)

MOLECULE: CNc1nc(N2CC(C3(C(F)(F)F)C=CC(c4ccccc4)=CC3)C2C#N)nc2ccccc12 (stereo not shown)
ASSAY READOUT: IC50
VALUE: 5.47
--
MOLECULE: CCCN1C(CO)C(c2ccc(-c3ccc(C(F)(F)F)cc3)cc2)C1CNC(=O)c1sc2ncccc2c1N (stereo not shown)
ASSAY READOUT: IC50
VALUE: 5.13
--
MOLECULE: C=CCN1C(C#N)C(c2ccc(-c3ccc(C(F)(F)F)cc3)cc2)C1Cn1cc(-c2ccccn2)nn1 (stereo not shown)
ASSAY READOUT: IC50
VALUE: 7.51
--
MOLECULE: CCCN1C(CO)C(c2ccc(-c3ccc4nc[nH]c4c3)cc2)C1CNC(=O)c1sc2ncccc2c1N (stereo not shown)
ASSAY READOUT: IC50
VALUE: 19.1
--
MOLECULE: N#CC1C(c2ccc(-c3ccc(C(F)(F)F)cc3)cc2)C(CO)N1C(=O)c1sc2ncccc2c1N (stereo not shown)
ASSAY READOUT: IC50
VALUE: 3.73
--
MOLECULE: CNc1nc(N2CC(c3ccc(-c4ccc(C(F)(F)F)cc4)cc3)C2C#N)nc2ccccc12 (stereo not shown)
ASSAY READOUT: IC50
VALUE: 5.9
--
MOLECULE: N#CC1C(c2ccc(-c3ccc(C(F)(F)F)cc3)cc2)CN1C(=O)c1sc2ncccc2c1N (stereo not shown)
ASSAY READOUT: IC50
VALUE: 7.42
--
MOLECULE: N#CC1C(c2ccc(-c3ccc(C(F)(F)F)cc3)cc2)C(CO)N1C(=O)c1ccc(NC(=O)c2sc3ncccc3c2N)cc1 (stereo not shown)
ASSAY READOUT: IC50
VALUE: 2.81
--
MOLECULE: Cc1noc(C)c1-c1ccc(C2CN(C(=O)c3sc4ncccc4c3N)C2C#N)cc1 (stereo not shown)
ASSAY READOUT: IC50
VALUE: 7.3
--
MOLECULE: CNc1nc(N2CC(c3ccc(-c4c(C)noc4C)cc3)C2C#N)nc2ccccc12 (stereo not shown)
ASSAY READOUT: IC50
VALUE: 6.31
